target entity: HA of ca A/Wuhan/359/95 (H3N2) (influenza A virus)
assay notes: cell-based or functional assay
assay metric: Neutralization IC50, H3-WH95 (µg/mL)
# number only, unit µg/mL dropped from output

Here is how some binders turned out for Neutralization IC50, H3-WH95.
binder	Neutralization IC50, H3-WH95 (µg/mL)
Antibody 11 (antibody, V domains shown) VH: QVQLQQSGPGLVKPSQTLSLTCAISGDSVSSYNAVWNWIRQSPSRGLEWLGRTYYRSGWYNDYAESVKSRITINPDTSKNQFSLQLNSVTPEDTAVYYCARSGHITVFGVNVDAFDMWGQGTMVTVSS VL: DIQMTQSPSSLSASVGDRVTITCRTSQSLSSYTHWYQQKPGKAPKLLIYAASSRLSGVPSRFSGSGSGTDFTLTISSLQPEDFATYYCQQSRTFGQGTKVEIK	2.45
Antibody 13 (antibody, V domains shown) VH: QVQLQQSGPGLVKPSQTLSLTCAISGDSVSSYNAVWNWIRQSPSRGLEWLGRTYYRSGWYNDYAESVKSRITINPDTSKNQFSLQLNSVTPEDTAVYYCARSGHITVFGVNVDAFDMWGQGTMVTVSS VL: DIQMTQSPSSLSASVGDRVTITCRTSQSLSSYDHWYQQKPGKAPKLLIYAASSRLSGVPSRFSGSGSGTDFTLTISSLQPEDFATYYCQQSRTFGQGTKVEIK	2.77

Let's switch to this binder now.
Fill in the blank: the reported Neutralization IC50, H3-WH95 of Antibody 15 (antibody, V domains shown) VH: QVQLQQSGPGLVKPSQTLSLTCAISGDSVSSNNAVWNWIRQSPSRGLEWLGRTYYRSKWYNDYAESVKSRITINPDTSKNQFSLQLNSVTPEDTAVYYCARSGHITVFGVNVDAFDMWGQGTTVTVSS VL: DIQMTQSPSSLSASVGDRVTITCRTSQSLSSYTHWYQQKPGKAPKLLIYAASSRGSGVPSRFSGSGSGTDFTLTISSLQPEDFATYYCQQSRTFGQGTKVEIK is ____.
3.32
